Experiment: Octanol-water partition coefficient, log D of the compound by chromatographic method
Format: physicochemical
Quantity Kind: chromatographic logD

- Structure String: "O=C1NCc2c1cnn2-c1ccnc(Cc2cc(F)cc(C(F)(F)F)c2)c1"
  Quantity Kind: "chromatographic logD"
  Test Result: 4
- Structure String: "O=C1NCCc2c1cnn2-c1ccnc(Cc2cc(F)cc(C(F)(F)F)c2)c1"
  Quantity Kind: "chromatographic logD"
  Test Result: 3.9
- Structure String: "Cc1nn(-c2cncc(Cc3cc(F)cc(C(F)(F)F)c3)c2)c2c1C(=O)NCC2"
  Quantity Kind: "chromatographic logD"
  Test Result: 4.1
- Structure String: "O=C1NCCc2c1nnn2-c1ccnc(Cc2cc(F)cc(C(F)(F)F)c2)c1"
  Quantity Kind: "chromatographic logD"
  Test Result: 4
